Examples of compounds with documented activity at 50 µM follow.
biological target: LbDHODH (Leishmania braziliensis); experiment: biochemical; conditions: 0 h, pH 8.15, read-out: LbDHODH Activity±SD (%)
Sequence (E9AI53 entry or part of it): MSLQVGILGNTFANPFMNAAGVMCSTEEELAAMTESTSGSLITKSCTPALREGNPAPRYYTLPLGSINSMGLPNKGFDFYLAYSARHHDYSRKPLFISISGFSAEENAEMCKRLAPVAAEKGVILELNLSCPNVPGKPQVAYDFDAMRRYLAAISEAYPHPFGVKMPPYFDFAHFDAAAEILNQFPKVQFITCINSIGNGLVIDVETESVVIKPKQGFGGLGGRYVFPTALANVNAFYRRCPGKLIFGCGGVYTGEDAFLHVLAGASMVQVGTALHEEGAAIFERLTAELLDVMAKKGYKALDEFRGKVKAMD
observable: activity at 50 µM

[[record]]
compound = "O=C1NC(=O)C(=Cc2ccc(N3CCOCC3)cc2[N+](=O)[O-])C(=O)N1 [2e]"
target = "LbDHODH (Leishmania braziliensis)"
recorded_value = "7%"

[[record]]
compound = "O=C1NC(=O)C(=Cc2cccc(O)c2)C(=O)N1 [2g]"
target = "LbDHODH (Leishmania braziliensis)"
recorded_value = "63%"

[[record]]
compound = "O=C1NC(=O)C(=Cc2ccc(-c3ccccc3)cc2)C(=O)N1 [2f]"
target = "LbDHODH (Leishmania braziliensis)"
recorded_value = "71%"

[[record]]
compound = "O=C1NC(=O)C(=Cc2ccccc2)C(=O)N1 [2a]"
target = "LbDHODH (Leishmania braziliensis)"
recorded_value = "54%"

[[record]]
compound = "O=C1NC(=O)C(=Cc2ccc(O)c([N+](=O)[O-])c2)C(=O)N1 [2d]"
target = "LbDHODH (Leishmania braziliensis)"
recorded_value = "8%"

[[record]]
compound = "COc1cc(C=C2C(=O)NC(=O)NC2=O)ccc1O [2c]"
target = "LbDHODH (Leishmania braziliensis)"
recorded_value = "13%"

[[record]]
compound = "O=C1NC(=O)C(=C/C=C/c2ccccc2)C(=O)N1 [2i]"
target = "LbDHODH (Leishmania braziliensis)"
recorded_value = "4%"

[[record]]
compound = "O=C1NC(=O)C(=Cc2ccc(C(=O)O)cc2)C(=O)N1 [2b]"
target = "LbDHODH (Leishmania braziliensis)"
recorded_value = "72%"


====

biological target: LbDHODH (Leishmania braziliensis); assay: Kinact/KI determination from LbDHODH progress curves (kobs vs inhibitor concentration); assay type: biochemical; conditions: inhibitor 0.390625 µM
Examples of compounds with documented Kobs follow.
observable: Kobs (s⁻¹)

[[record]]
smiles_repr = "O=C1NC(=O)C(=Cc2ccc(O)c([N+](=O)[O-])c2)C(=O)N1"
unit_tag = "s⁻¹"
recorded_value = 0.003416

[[record]]
smiles_repr = "O=C1NC(=O)C(=Cc2cccc(O)c2)C(=O)N1"
unit_tag = "s⁻¹"
recorded_value = 0.003649

[[record]]
smiles_repr = "O=C1NC(=O)C(=Cc2ccccc2)C(=O)N1"
unit_tag = "s⁻¹"
recorded_value = 0.003884

[[record]]
smiles_repr = "O=C1NC(=O)C(=C/C=C/c2ccccc2)C(=O)N1"
unit_tag = "s⁻¹"
recorded_value = 0.003028


====

Examples of compounds with documented activity at 200 µM follow.
target: UniProt:E9AI53; test: biochemical; conditions: 4 h, pH 8.15, read-out: LbDHODH Activity±SD (%)
observable: activity at 200 µM (%)

[[record]]
compound = "O=C1NC(=O)C(=Cc2cccc(O)c2)C(=O)N1 [2g]"
target = "UniProt:E9AI53"
observable = "activity at 200 µM"
unit_tag = "%"
recorded_value = 7.1

[[record]]
compound = "O=C1NC(=O)C(=C/C=C/c2ccccc2)C(=O)N1 [2i]"
target = "UniProt:E9AI53"
observable = "activity at 200 µM"
unit_tag = "%"
recorded_value = 3

[[record]]
compound = "O=C1NC(=O)C(=Cc2ccc(C(=O)O)cc2)C(=O)N1 [2b]"
target = "UniProt:E9AI53"
observable = "activity at 200 µM"
unit_tag = "%"
recorded_value = 13

[[record]]
compound = "O=C1NC(=O)C(=Cc2ccc(-c3ccccc3)cc2)C(=O)N1 [2f]"
target = "UniProt:E9AI53"
observable = "activity at 200 µM"
unit_tag = "%"
recorded_value = 0.95

[[record]]
compound = "O=C1NC(=O)C(=Cc2ccc(O)c([N+](=O)[O-])c2)C(=O)N1 [2d]"
target = "UniProt:E9AI53"
observable = "activity at 200 µM"
unit_tag = "%"
recorded_value = 21

[[record]]
compound = "O=C1NC(=O)C(=Cc2ccccc2)C(=O)N1 [2a]"
target = "UniProt:E9AI53"
observable = "activity at 200 µM"
unit_tag = "%"
recorded_value = 5

[[record]]
compound = "COc1cc(C=C2C(=O)NC(=O)NC2=O)ccc1O [2c]"
target = "UniProt:E9AI53"
observable = "activity at 200 µM"
unit_tag = "%"
recorded_value = 32


====

Molecular target: UniProtKB E9AI53
Experiment: biochemical
Conditions: 4 h, pH 8.15, read-out: LbDHODH Activity±SD (%)
Protocol: To assess the ability of compounds 2a–2i to inhibit LbDHODH via covalent bond formation with Cys^131, we initially screened them at a concentration of 100 μM under two conditions: with and without a 4-h preincubation with the enzyme. The experiments were performed in a 96-well microplate reader (SpectraMax Plus 384, Molecular Devices, USA), containing the […] of the buffer 60 mM DCIP, 50 mM Tris pH 8.15, 150 mM KCl, 0.1% Triton X-100, 50 μM DHO and 10 μM of LbDHODH at 165 nM. […]
Examples of molecules with documented activity at 0.390625 µM follow.
observable: activity at 0.390625 µM (%)

[[record]]
molecule = "O=C1NC(=O)C(=Cc2ccccc2)C(=O)N1 [2a]"
recorded_value = 92

[[record]]
molecule = "O=C1NC(=O)C(=C/C=C/c2ccccc2)C(=O)N1 [2i]"
recorded_value = 51

[[record]]
molecule = "O=C1NC(=O)C(=Cc2ccc(C(=O)O)cc2)C(=O)N1 [2b]"
recorded_value = 99

[[record]]
molecule = "O=C1NC(=O)C(=Cc2ccc(-c3ccccc3)cc2)C(=O)N1 [2f]"
recorded_value = 95.9

[[record]]
molecule = "O=C1NC(=O)C(=Cc2ccc(O)c([N+](=O)[O-])c2)C(=O)N1 [2d]"
recorded_value = 75

[[record]]
molecule = "O=C1NC(=O)C(=Cc2ccc(N3CCOCC3)cc2[N+](=O)[O-])C(=O)N1 [2e]"
recorded_value = 106

[[record]]
molecule = "COc1cc(C=C2C(=O)NC(=O)NC2=O)ccc1O [2c]"
recorded_value = 102


====

assay: Mouse liver microsome stability in the absence of cofactors (NCF); settings: mouse, microsomes, pH 7.4, % Remaining, T=60 NCF, n=2, mouse liver microsomes, 1 µM, 60 min, no cofactor (NCF), n=2
observable: remaining at 1 h, 1 µM (%)

[[record]]
molecule = "COc1cc(C=C2C(=O)NC(=O)NC2=O)ccc1O [2c]"
observable = "remaining at 1 h, 1 µM"
recorded_value = 51.5

[[record]]
molecule = "O=C1NC(=O)C(=Cc2ccc(N3CCOCC3)cc2[N+](=O)[O-])C(=O)N1 [2e]"
observable = "remaining at 1 h, 1 µM"
recorded_value = 93.1

[[record]]
molecule = "O=C1NC(=O)C(=Cc2ccc(-c3ccccc3F)[nH]2)C(=O)N1 [2h]"
observable = "remaining at 1 h, 1 µM"
recorded_value = 1.5

[[record]]
molecule = "O=C1NC(=O)C(=C/C=C/c2ccccc2)C(=O)N1 [2i]"
observable = "remaining at 1 h, 1 µM"
recorded_value = 19.3


====

molecular target: LbDHODH (Leishmania braziliensis); experiment: Kinact/KI determination from LbDHODH progress curves (kobs vs inhibitor concentration); type: biochemical; details: inhibitor 25 µM
observable: Kobs (s⁻¹)

[[record]]
smiles_repr = "O=C1NC(=O)C(=Cc2cccc(O)c2)C(=O)N1"
target = "LbDHODH (Leishmania braziliensis)"
unit_tag = "s⁻¹"
recorded_value = 0.004549

[[record]]
smiles_repr = "O=C1NC(=O)C(=Cc2ccccc2)C(=O)N1"
target = "LbDHODH (Leishmania braziliensis)"
unit_tag = "s⁻¹"
recorded_value = 0.003515

[[record]]
smiles_repr = "O=C1NC(=O)C(=C/C=C/c2ccccc2)C(=O)N1"
target = "LbDHODH (Leishmania braziliensis)"
unit_tag = "s⁻¹"
recorded_value = 0.0045

[[record]]
smiles_repr = "O=C1NC(=O)C(=Cc2ccc(O)c([N+](=O)[O-])c2)C(=O)N1"
target = "LbDHODH (Leishmania braziliensis)"
unit_tag = "s⁻¹"
recorded_value = 0.005571


====

details: mouse liver microsomes (CD1 male), 0.4 mg/ml protein, test conc 1 µM, average of n=1 and n=2
Examples of compounds with documented Calculated T-half (min), Average follow.
observable: Calculated T-half (min), Average

[[record]]
compound = "O=C1NC(=O)C(=C/C=C/c2ccccc2)C(=O)N1 [2i]"
recorded_value = 2.7

[[record]]
compound = "O=C1NC(=O)C(=Cc2ccc(N3CCOCC3)cc2[N+](=O)[O-])C(=O)N1 [2e]"
recorded_value = 298.4

[[record]]
compound = "COc1cc(C=C2C(=O)NC(=O)NC2=O)ccc1O [2c]"
recorded_value = 6.0

[[record]]
compound = "O=C(O)Cc1ccccc1Nc1c(Cl)cccc1Cl [Diclofenac]"
recorded_value = 59.3

[[record]]
compound = "O=C1NC(=O)C(=Cc2ccc(-c3ccccc3F)[nH]2)C(=O)N1 [2h]"
recorded_value = 1.7


Attribution: paper PMC12481576
